Target: EGFR in Baf3-L858R-T790M-C797S (Homo sapiens, UniProt P00533, C797S/L858R/T790M)
Sequence (P00533 25-1210 T790M/C797S/L858R): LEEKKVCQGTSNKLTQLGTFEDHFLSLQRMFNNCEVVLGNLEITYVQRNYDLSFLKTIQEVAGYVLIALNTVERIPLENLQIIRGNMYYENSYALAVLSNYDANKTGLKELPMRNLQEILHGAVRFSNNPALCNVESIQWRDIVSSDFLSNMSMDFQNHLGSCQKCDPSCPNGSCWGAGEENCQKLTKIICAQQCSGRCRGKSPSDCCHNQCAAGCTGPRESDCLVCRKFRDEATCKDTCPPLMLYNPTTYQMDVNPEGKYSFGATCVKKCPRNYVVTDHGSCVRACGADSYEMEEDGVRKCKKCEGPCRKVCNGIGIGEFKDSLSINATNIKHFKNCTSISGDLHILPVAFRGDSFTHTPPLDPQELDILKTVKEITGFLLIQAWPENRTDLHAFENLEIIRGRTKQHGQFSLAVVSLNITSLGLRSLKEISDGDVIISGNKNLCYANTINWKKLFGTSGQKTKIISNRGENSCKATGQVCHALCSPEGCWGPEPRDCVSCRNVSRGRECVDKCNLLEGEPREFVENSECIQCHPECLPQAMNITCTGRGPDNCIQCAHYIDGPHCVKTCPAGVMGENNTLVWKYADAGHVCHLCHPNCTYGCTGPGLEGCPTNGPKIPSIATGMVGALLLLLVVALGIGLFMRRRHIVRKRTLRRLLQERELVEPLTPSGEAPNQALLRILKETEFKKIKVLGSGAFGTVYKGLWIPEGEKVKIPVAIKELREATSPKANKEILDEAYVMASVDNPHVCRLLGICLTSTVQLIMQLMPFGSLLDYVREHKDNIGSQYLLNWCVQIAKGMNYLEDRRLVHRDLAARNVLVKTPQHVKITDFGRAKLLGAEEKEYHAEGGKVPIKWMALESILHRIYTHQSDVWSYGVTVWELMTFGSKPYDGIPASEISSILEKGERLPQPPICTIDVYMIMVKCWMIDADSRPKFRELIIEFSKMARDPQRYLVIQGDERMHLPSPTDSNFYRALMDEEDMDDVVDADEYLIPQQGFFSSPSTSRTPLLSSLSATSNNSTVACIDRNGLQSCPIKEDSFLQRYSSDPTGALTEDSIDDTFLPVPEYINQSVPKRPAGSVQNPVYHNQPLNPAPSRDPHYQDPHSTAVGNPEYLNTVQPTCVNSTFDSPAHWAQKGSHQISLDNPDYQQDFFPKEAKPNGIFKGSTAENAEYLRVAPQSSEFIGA
Assay: EGFR PROTAC HTRF experiment (total EGFR degradation)
Assay type: cell-based
Settings: Baf3-LTC, incubated 16 hours, HTRF total EGFR; read-out: Baf3-LTC Dmax
Excerpt: [table] Among them, B[…] -C797S (abbreviated as Baf3-DTC) is a stable Ba/F3 clone expressing exogenous EGFR gene bearing T790M, C797S and […] triple amino acid mutations, purchased from KYinno; Baf3-L858R-T790M - C797S (abbreviated as Baf3-LTC) is a stable Ba/F3 clone expressing exogenous EGFR gene bearing […], T790M, C797S triple mutations, purchased from KYinno. [table] […] Opened EnVision , locate the HTRF program, configured the board, and then read […]. […]
measure-name: Dmax

# compound, target-or-system, measure-name, data-value
rows = [
    ("CCc1cc(Nc2ncc(Cl)c(Nc3ccccc3C(=O)NC)n2)c(OC)cc1N1CCN(CCN2CCC(c3cc4c(cc3F)c(N3CCC(=O)NC3=O)nn4C)CC2)CC1 [TD-001]", "EGFR in Baf3-L858R-T790M-C797S (Homo sapiens, UniProt P00533, C797S/L858R/T790M)", "Dmax", "50 to 70%"),
    ("CCc1cc(Nc2ncc(Cl)c(Nc3ccccc3P(C)(C)=O)n2)c(OC)cc1N1CCN(C(=O)CN2CCC(c3cc4c(cc3F)c(N3CCC(=O)NC3=O)nn4C)CC2)CC1 [TC-213]", "EGFR in Baf3-L858R-T790M-C797S (Homo sapiens, UniProt P00533, C797S/L858R/T790M)", "Dmax", "70 to 100%"),
    ("CCc1cc(Nc2ncc(Br)c(Nc3ccccc3P3(=O)CCCC3)n2)c(OC)cc1N1CC2(CCN(C(=O)CN3CCC(c4cc5c(cc4F)c(N4CCC(=O)NC4=O)nn5C)C(F)(F)C3)CC2(F)F)C1 (centres unmarked) [TB-010]", "EGFR in Baf3-L858R-T790M-C797S (Homo sapiens, UniProt P00533, C797S/L858R/T790M)", "Dmax", "70 to 100%"),
]

Quick one: give measured Dmax for CCc1cc(Nc2ncc(Cl)c(Nc3ccccc3P(C)(C)=O)n2)c(OC)cc1N1CC2(CCN(C(=O)CN3CCC(c4cc5c(cc4F)c(N4CCC(=O)NC4=O)nn5C)C(F)(F)C3)CC2)C1 (centres unmarked) [TA-023]
70 to 100%

Fill in reported Dmax for this entry: CCc1cc(Nc2ncc(Br)c(Nc3ccccc3C(=O)NC)n2)c(OC)cc1N1CCN(C(=O)CN2CCC(c3cc4c(cc3F)c(N3CCC(=O)NC3=O)nn4C)C(F)(F)C2)CC1 (centres unmarked) [TA-004]
70 to 100%

----------
Assay: Pharmacokinetic test of CD-1 mice
Format: in vivo
Conditions: mouse; male CD-1 mice, single oral gavage (PO), plasma
Each entry below carries its reported Tmax.
# value in h; strip the unit string

Please review the following examples before continuing.
# molecule, Tmax / h
data = [
    ("CCc1cc(Nc2ncc(Cl)c(Nc3ccccc3P(C)(C)=O)n2)c(OC)cc1N1CCN(C(=O)CN2CCC(c3cc4c(cc3F)c(N3CCC(=O)NC3=O)nn4C)C(F)(F)C2)CC1 (stereo not shown)", 1),
    ("CCc1cc(Nc2ncc(Cl)c(Nc3ccccc3C(=O)NC)n2)c(OC)cc1N1CCN(C(=O)CN2CCC(c3ccc4c(N5CCC(=O)NC5=O)nn(C)c4c3)C(F)(F)C2)CC1 (stereo not shown) [Comparative Example 1-1, reference compound]", 2),
]

Please report the measured Tmax for CCc1cc(Nc2ncc(Cl)c(Nc3ccccc3C(=O)NC)n2)c(OC)cc1N1CCN(C(=O)CN2CCC(c3cc4c(cc3F)c(N3CCC(=O)NC3=O)nn4C)C(F)(F)C2)CC1 (stereo not shown)
4

Answer with the recorded Tmax for the molecule listed here: CCc1cc(Nc2ncc(Br)c(Nc3ccccc3C(=O)NC)n2)c(OC)cc1N1CCN(C(=O)CN2CCC(c3cc4c(cc3F)c(N3CCC(=O)NC3=O)nn4C)C(F)(F)C2)CC1 (stereo not shown)
2
